Would you kindly list polymerase ribozyme fitness (log ratio) for each of these variants?
B1: TPR 5TU (parent)
chain: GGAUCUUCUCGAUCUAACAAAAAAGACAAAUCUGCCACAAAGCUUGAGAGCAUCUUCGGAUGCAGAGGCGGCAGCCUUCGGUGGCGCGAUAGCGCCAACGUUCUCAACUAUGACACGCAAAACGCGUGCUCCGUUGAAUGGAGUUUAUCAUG

- Variants of: B1
- test name: polymerase ribozyme fitness, log enrichment relative to wild type (log ratio); higher = more active; in vitro selection for triplet polymerase activity
Fewer inactive variants are shown than the library holds.

variant A73G A98G , polymerase ribozyme fitness (log ratio) observed: 0.461

// sample A17U A20G C63A G92A A150U , its polymerase ribozyme fitness (log ratio) was -2.12

In plain terms, A60U C85G A89U has a documented polymerase ribozyme fitness (log ratio) of ≤ -4.2

Summary for this variant, C93A U148G : polymerase ribozyme fitness (log ratio) is ≤ -4.2

The recorded polymerase ribozyme fitness (log ratio) for entry C18U G25C A26C C32G G50U G58C C75U A91G C114A equals ≤ -4.2

Form field polymerase ribozyme fitness (log ratio), entry A21C G50A A122U : -1.39

Measured polymerase ribozyme fitness (log ratio), A89C G143A : -0.0918

Consider C69U C87A . Its measured polymerase ribozyme fitness (log ratio) is ≤ -4.2

The value of polymerase ribozyme fitness (log ratio) measured for the variant A24U A28C A52G G71A C96G A137C turned out to be ≤ -4.2

polymerase ribozyme fitness (log ratio) in this record for U82G G143A : -0.245

The variant listed as C35U A41C U56A C76U G88U C105U has a reported polymerase ribozyme fitness (log ratio) of ≤ -4.2

So for C27A A60U A91U A106U , the logged polymerase ribozyme fitness (log ratio) turned out to be ≤ -4.2

The variant identified as A39G A52U U56A C75U U78G U104A U144C registered its polymerase ribozyme fitness (log ratio) at ≤ -4.2

Record A73C G92C , field polymerase ribozyme fitness (log ratio): -3.64

Input A16G A22U C85G G92A C93G C108G A113U G117C . Output polymerase ribozyme fitness (log ratio): ≤ -4.2

Entry U7C G50A A66G ; polymerase ribozyme fitness (log ratio) = ≤ -4.2

// C14G C75U : polymerase ribozyme fitness (log ratio) value = -2.58

Entry A24U U56A — recorded polymerase ribozyme fitness (log ratio) = 0.265

// sample A23U A29C C85G A110G G112U , its polymerase ribozyme fitness (log ratio) was ≤ -4.2

# variant C76A C87U G92A ; its polymerase ribozyme fitness (log ratio) = -2.16

Sure, the documented polymerase ribozyme fitness (log ratio) for G46A A52C U139G is -3.91

What the record says about A60G C96U U101G G128A : polymerase ribozyme fitness (log ratio) is -3.75
